test: in vitro; conditions: pig, simulated intestinal fluid
Starred links: 1 amine or outer side, 2 acyl side, 3 side chain; linkers in the order of their positions; H or OH if unused. Non-standard residues stand in square brackets, D forms with d. Residues, ends and D or L forms follow the SMILES beside them. X1 = CC(C)C[C@H](NC(=S)[C@H](Cc1ccc(O)cc1)N[*:1])C(=O)[*:2]; X3 = CC(C)C[C@H](N[*:1])C(=S)N[C@H](CC(C)C)C(=O)[*:2]; X5 = CC(C)C[C@H](NC(=S)[C@H](CC(C)C)N[*:1])C(=O)[*:2]; NMeL = CN[C@@H](CC(C)C)C(=O)O

| molecule | unit_string | remaining at 8 h |
| --- | --- | --- |
| CC(C)C[C@@H]1NC(=O)[C@H](Cc2ccc(O)cc2)NC(=O)[C@H]2CCCN2C(=O)[C@H](CC(C)C)N(C)C(=O)[C@H](CC(C)C)NC(=O)[C@@H](CC(C)C)NC1=O [10i] (cyclo(L[NMeL][dP]YL[dL])) | % | 6 |
| CC(C)C[C@@H]1NC(=O)[C@@H](CC(C)C)NC(=O)[C@H](CC(C)C)NC(=S)[C@H](Cc2ccc(O)cc2)NC(=O)[C@H]2CCCN2C(=O)[C@H](CC(C)C)NC1=O [10e] (cyclo(LL[dP][X1][dL])) | % | 40.9 |
| CC(C)C[C@@H]1NC(=O)[C@H](Cc2ccc(O)cc2)NC(=O)[C@H]2CCCN2C(=O)[C@H](CC(C)C)NC(=S)[C@H](CC(C)C)NC(=O)[C@@H](CC(C)C)NC1=O [10b] (cyclo(L[dL][X5][dP]Y)) | % | 26.6 |
| CC(C)C[C@@H]1NC(=O)[C@@H](CC(C)C)NC(=S)[C@H](CC(C)C)NC(=O)[C@H](Cc2ccc(O)cc2)NC(=O)[C@H]2CCCN2C(=O)[C@H](CC(C)C)NC1=O [10f] (cyclo(LL[dP]Y[X3])) | % | 31.7 |
| CC(C)C[C@@H]1NC(=O)[C@@H](CC(C)C)NC(=O)[C@H](CC(C)C)N(C)C(=O)[C@H](Cc2ccc(O)cc2)NC(=O)[C@H]2CCCN2C(=O)[C@H](CC(C)C)NC1=O [10k] (cyclo(LL[dP]Y[NMeL][dL])) | % | 6 |

====

experiment: HDX of amide protons by NMR in CDCl3:CD3OD (8:2); conditions: 20% CD3OD in CDCl3
Starred links: 1 amine or outer side, 2 acyl side, 3 side chain; linkers in the order of their positions; H or OH if unused. Non-standard residues stand in square brackets, D forms with d. Residues, ends and D or L forms follow the SMILES beside them. X1 = CC(C)C[C@H](NC(=S)[C@H](Cc1ccc(O)cc1)N[*:1])C(=O)[*:2]; X2 = CC(C)C[C@H](NC(=S)[C@@H](CC(C)C)N[*:1])C(=O)[*:2]; X3 = CC(C)C[C@H](N[*:1])C(=S)N[C@H](CC(C)C)C(=O)[*:2]
Items are presented alongside their recorded Half-life of D-Leu1 amide proton (HDX).
attribute_measured: Half-life of D-Leu1 amide proton (HDX) (h)

| compound | observed_measurement |
| --- | --- |
| CC(C)C[C@@H]1NC(=O)[C@H](Cc2ccc(O)cc2)NC(=O)[C@H]2CCCN2C(=O)[C@H](CC(C)C)NC(=O)[C@H](CC(C)C)NC(=S)[C@@H](CC(C)C)NC1=O [10a] (cyclo(L[dP]YL[X2])) | 19.25 |
| CC(C)C[C@@H]1NC(=O)[C@@H](CC(C)C)NC(=O)[C@H](CC(C)C)NC(=S)[C@H](Cc2ccc(O)cc2)NC(=O)[C@H]2CCCN2C(=O)[C@H](CC(C)C)NC1=O [10e] (cyclo(LL[dP][X1][dL])) | 0.167 |
| CC(C)C[C@@H]1NC(=O)[C@@H](CC(C)C)NC(=S)[C@H](CC(C)C)NC(=O)[C@H](Cc2ccc(O)cc2)NC(=O)[C@H]2CCCN2C(=O)[C@H](CC(C)C)NC1=O [10f] (cyclo(LL[dP]Y[X3])) | 0.167 |
| CC(C)C[C@@H]1NC(=O)[C@H](Cc2ccc(O)cc2)NC(=O)[C@H]2CCCN2C(=O)[C@H](CC(C)C)NC(=O)[C@H](CC(C)C)NC(=O)[C@@H](CC(C)C)NC1=O [compound 10, cyclo(-D-Leu^1-Leu-Leu-D-Pro-Tyr-Leu^6-)] (cyclo(LL[dP]YL[dL])) | 7.25 |

====

assay: HDX of amide protons by NMR in DMSO-d6:D2O (8:2); conditions: HDX by NMR, 20% D2O in DMSO-d6
Starred links: 1 amine or outer side, 2 acyl side, 3 side chain; linkers in the order of their positions; H or OH if unused. Non-standard residues stand in square brackets, D forms with d. Residues, ends and D or L forms follow the SMILES beside them. X1 = CC(C)C[C@H](NC(=S)[C@H](Cc1ccc(O)cc1)N[*:1])C(=O)[*:2]; X2 = CC(C)C[C@H](NC(=S)[C@@H](CC(C)C)N[*:1])C(=O)[*:2]; X3 = CC(C)C[C@H](N[*:1])C(=S)N[C@H](CC(C)C)C(=O)[*:2]
attribute_measured: Half-life of Leu6 amide proton (HDX) (h)

| molecule | unit_string | observed_measurement |
| --- | --- | --- |
| CC(C)C[C@@H]1NC(=O)[C@@H](CC(C)C)NC(=O)[C@H](CC(C)C)NC(=S)[C@H](Cc2ccc(O)cc2)NC(=O)[C@H]2CCCN2C(=O)[C@H](CC(C)C)NC1=O [10e] (cyclo(LL[dP][X1][dL])) | h | 10.8 |
| CC(C)C[C@@H]1NC(=O)[C@H](Cc2ccc(O)cc2)NC(=O)[C@H]2CCCN2C(=O)[C@H](CC(C)C)NC(=O)[C@H](CC(C)C)NC(=O)[C@@H](CC(C)C)NC1=O [compound 10, cyclo(-D-Leu^1-Leu-Leu-D-Pro-Tyr-Leu^6-)] (cyclo(LL[dP]YL[dL])) | h | 7.83 |
| CC(C)C[C@@H]1NC(=O)[C@@H](CC(C)C)NC(=S)[C@H](CC(C)C)NC(=O)[C@H](Cc2ccc(O)cc2)NC(=O)[C@H]2CCCN2C(=O)[C@H](CC(C)C)NC1=O [10f] (cyclo(LL[dP]Y[X3])) | h | 12 |
| CC(C)C[C@@H]1NC(=O)[C@H](Cc2ccc(O)cc2)NC(=O)[C@H]2CCCN2C(=O)[C@H](CC(C)C)NC(=O)[C@H](CC(C)C)NC(=S)[C@@H](CC(C)C)NC1=O [10a] (cyclo(L[dP]YL[X2])) | h | 13.3 |

====

format: physicochemical
Starred links: 1 amine or outer side, 2 acyl side, 3 side chain; linkers in the order of their positions; H or OH if unused. Non-standard residues stand in square brackets, D forms with d. Residues, ends and D or L forms follow the SMILES beside them. X12 = C[C@@H](O)[C@H](N[*:1])C(=S)N[C@@H](Cc1ccccc1)C(=O)[*:2]; X1 = CC(C)C[C@H](NC(=S)[C@H](Cc1ccc(O)cc1)N[*:1])C(=O)[*:2]; X6 = O=C([C@H](Cc1ccc(O)cc1)NC(=S)[C@H]1CCCN1[*:1])[*:2]; X8 = O=C([C@H](Cc1ccccc1)NC(=S)[C@@H]1CCCN1[*:1])[*:2]; X9 = O=C([C@@H]1CCCN1C(=S)[C@H](Cc1ccccc1)N[*:1])[*:2]; X5 = CC(C)C[C@H](NC(=S)[C@H](CC(C)C)N[*:1])C(=O)[*:2]
attribute_measured: logD heptane ethylene glycol

| molecule | attribute_measured | observed_measurement |
| --- | --- | --- |
| C[C@@H](O)[C@@H]1NC(=O)[C@H](CCCCN)NC(=O)[C@@H](Cc2c[nH]c3ccccc23)NC(=O)[C@H](Cc2ccccc2)NC(=O)[C@@H]2CCCN2C(=O)[C@H](Cc2ccccc2)NC1=S [13c] (cyclo(F[dW]K[X12]P)) | logD heptane ethylene glycol | -1.18 |
| C[C@@H](O)[C@@H]1NC(=O)[C@H](CCCCN)NC(=O)[C@@H](Cc2c[nH]c3ccccc23)NC(=O)[C@H](Cc2ccccc2)NC(=O)[C@@H]2CCCN2C(=S)[C@H](Cc2ccccc2)NC1=O [13d] (cyclo(F[dW]KT[X9])) | logD heptane ethylene glycol | -0.94 |
| CC(C)C[C@@H]1NC(=O)[C@H](Cc2ccc(O)cc2)NC(=O)[C@H]2CCCN2C(=O)[C@H](CC(C)C)NC(=O)[C@H](CC(C)C)NC(=O)[C@@H](CC(C)C)NC1=O [compound 10, cyclo(-D-Leu^1-Leu-Leu-D-Pro-Tyr-Leu^6-)] (cyclo(LL[dP]YL[dL])) | logD heptane ethylene glycol | 0.46 |
| C[C@@H](O)[C@@H]1NC(=O)[C@H](CCCCN)NC(=O)[C@@H](Cc2c[nH]c3ccccc23)NC(=O)[C@H](Cc2ccccc2)NC(=S)[C@@H]2CCCN2C(=O)[C@H](Cc2ccccc2)NC1=O [13e] (cyclo(F[X8][dW]KT)) | logD heptane ethylene glycol | -1.16 |
| CC(C)C[C@@H]1NC(=O)[C@@H](CC(C)C)NC(=O)[C@H](CC(C)C)NC(=S)[C@H](Cc2ccc(O)cc2)NC(=O)[C@H]2CCCN2C(=O)[C@H](CC(C)C)NC1=O [10e] (cyclo(LL[dP][X1][dL])) | logD heptane ethylene glycol | 0.94 |
| CC(C)C[C@@H]1NC(=O)[C@H](Cc2ccc(O)cc2)NC(=S)[C@H]2CCCN2C(=O)[C@H](CC(C)C)NC(=O)[C@H](CC(C)C)NC(=O)[C@@H](CC(C)C)NC1=O [10d] (cyclo(LL[X6]L[dL])) | logD heptane ethylene glycol | 0.72 |
| C[C@@H](O)[C@@H]1NC(=O)[C@H](CCCCN)NC(=O)[C@@H](Cc2c[nH]c3ccccc23)NC(=O)[C@H](Cc2ccccc2)NC(=O)[C@@H]2CCCN2C(=O)[C@H](Cc2ccccc2)NC1=O [compound 13, cyclo(-D-Trp^1-Lys-Thr-Phe-Pro-Phe^6-)] (cyclo(PF[dW]KTF)) | logD heptane ethylene glycol | -1.43 |
| CC(C)C[C@@H]1NC(=O)[C@H](Cc2ccc(O)cc2)NC(=O)[C@H]2CCCN2C(=O)[C@H](CC(C)C)NC(=S)[C@H](CC(C)C)NC(=O)[C@@H](CC(C)C)NC1=O [10b] (cyclo(L[dL][X5][dP]Y)) | logD heptane ethylene glycol | 0.62 |

Numbers sourced from paper PMC10539501.
